Molecular target: human glypican-3 (GPC3) (human, UniProt P51654 25-554); further: test concentration or dose not given here
Experiment: cell-based or functional assay
Reported JHH-7 Internalization (MFI), Day 0 in mouse plasma is given for each of the following binders.
Return type: number; implicit unit MFI.

Answered examples (3):
binder	reported
H18L6_LC_G34Q mAb, v40208 (antibody, human IgG1, kappa, V domains shown, Full-size IgG1/kappa) VH: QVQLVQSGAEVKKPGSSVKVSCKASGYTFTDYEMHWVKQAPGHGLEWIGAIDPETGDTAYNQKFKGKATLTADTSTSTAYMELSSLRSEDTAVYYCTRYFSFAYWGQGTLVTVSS VL: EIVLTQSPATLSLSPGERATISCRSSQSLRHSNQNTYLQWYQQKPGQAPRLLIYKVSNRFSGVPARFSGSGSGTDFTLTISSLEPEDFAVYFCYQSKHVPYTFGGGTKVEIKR	131
H18L6_LC_G34E mAb, v40204 (antibody, human IgG1, kappa, V domains shown, M3-H18L6 chains with the stated light chain point mutation, IgG1/kappa) VH: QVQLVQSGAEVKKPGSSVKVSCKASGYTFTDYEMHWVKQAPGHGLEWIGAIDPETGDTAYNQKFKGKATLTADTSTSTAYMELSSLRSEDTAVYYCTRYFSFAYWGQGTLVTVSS VL: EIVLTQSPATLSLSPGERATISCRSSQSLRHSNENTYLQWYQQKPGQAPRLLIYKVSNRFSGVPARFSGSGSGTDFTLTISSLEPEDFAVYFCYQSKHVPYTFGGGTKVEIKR	91
H18L6_LC_G34R mAb, v40206 (antibody, human IgG1, kappa, V domains shown, Full-size IgG1/kappa) VH: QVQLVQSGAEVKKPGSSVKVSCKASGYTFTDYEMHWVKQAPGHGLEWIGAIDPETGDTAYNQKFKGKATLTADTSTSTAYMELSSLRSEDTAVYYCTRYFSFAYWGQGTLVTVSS VL: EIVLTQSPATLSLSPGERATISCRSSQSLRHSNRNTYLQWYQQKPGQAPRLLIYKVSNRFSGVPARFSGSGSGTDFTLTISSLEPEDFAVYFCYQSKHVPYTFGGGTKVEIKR	144

// next item, JHH-7 Internalization (MFI), Day 0 in mouse plasma requested
Ask: Look at this binder and give its reported JHH-7 Internalization (MFI), Day 0 in mouse plasma. H18L6_LC_G34A mAb, v40212 (antibody, human IgG1, kappa, V domains shown, M3-H18L6 chains with the stated light chain point mutation, IgG1/kappa) VH: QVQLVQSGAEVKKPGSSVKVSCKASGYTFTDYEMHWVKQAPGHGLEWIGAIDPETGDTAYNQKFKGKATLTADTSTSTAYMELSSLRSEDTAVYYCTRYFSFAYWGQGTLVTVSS VL: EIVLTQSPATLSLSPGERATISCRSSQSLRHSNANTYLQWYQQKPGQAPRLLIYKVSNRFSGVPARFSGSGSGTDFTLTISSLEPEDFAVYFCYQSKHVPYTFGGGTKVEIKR
Result: 131
